target: UniProt:Q9Y3R4; assay: human NEU2 sialidase inhibition; details: NEU2 IC50, human NEU2
Sequence (Q9Y3R4 whole entry): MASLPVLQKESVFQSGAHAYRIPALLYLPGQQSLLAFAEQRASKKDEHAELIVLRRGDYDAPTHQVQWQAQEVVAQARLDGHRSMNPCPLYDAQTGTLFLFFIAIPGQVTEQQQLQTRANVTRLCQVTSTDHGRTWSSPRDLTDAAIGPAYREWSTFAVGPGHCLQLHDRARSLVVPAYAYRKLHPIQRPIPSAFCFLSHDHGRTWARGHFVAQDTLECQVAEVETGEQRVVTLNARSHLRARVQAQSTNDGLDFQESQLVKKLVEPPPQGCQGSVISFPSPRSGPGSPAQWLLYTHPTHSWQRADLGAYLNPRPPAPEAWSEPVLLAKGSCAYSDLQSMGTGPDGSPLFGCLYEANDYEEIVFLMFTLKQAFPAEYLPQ
Measured Attribute: pIC50
Remember the convention: pIC50 equals -log10 of concentration in molar.

Fill in: pIC50 of CC(=O)N[C@@H]1C(N)C=C(C(=O)O)OC1CNc1ccccc1 (stereo partly shown) [Compound 45] is ___
4.00

###

target: human NEU4 (Homo sapiens (Human), UniProt Q8WWR8); assay: human NEU4 sialidase inhibition
Sequence (Q8WWR8 whole entry): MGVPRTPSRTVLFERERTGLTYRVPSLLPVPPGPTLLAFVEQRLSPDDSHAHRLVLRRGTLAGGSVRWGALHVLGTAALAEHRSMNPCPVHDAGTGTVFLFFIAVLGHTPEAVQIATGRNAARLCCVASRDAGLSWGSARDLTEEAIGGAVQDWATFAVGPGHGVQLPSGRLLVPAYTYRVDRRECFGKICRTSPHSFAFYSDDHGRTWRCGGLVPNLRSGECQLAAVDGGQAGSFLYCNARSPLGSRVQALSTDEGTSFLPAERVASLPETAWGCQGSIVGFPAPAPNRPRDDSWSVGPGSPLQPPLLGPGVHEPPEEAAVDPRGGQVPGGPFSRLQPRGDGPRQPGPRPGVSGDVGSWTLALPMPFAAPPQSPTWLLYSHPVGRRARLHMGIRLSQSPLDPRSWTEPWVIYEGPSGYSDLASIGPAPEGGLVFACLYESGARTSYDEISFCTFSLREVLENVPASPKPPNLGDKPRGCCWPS
pIC50: −log10 of the molar value.
y means recorded pIC50 is 4 or above; n means it is below 4.

For this compound, is measured pIC50 4 or higher? [N-]=[N+]=NCC(=O)N[C@@H]1C(O)C=C(C(=O)O)OC1C(O)C(O)CO (stereo partly shown) [Compound 49]
y

Please give the result for CC(=O)N[C@@H]1C(O)C=C(C(=O)O)OC1CNNCc1ccc(-c2ccccc2)cc1 (stereo partly shown) [Compound 47] too.
n

Please give the result for O=C(Cn1cc(-c2ccccc2)nn1)N[C@@H]1C(O)C=C(C(=O)O)OC1C(O)C(O)CO (stereo partly shown) [Compound 50] too.
n

Please give the result for CCC(CC)O[C@@H]1CC(C(=O)O)C=C(n2cc([C@]3(O)CCC4C5CCc6cc(O)ccc6C5CC[C@@]43C)nn2)[C@H]1NC(C)=O (stereo partly shown) [Compound 29] too.
n

Please give the result for CC(=O)N[C@@H]1C(N=[N+]=[N-])C=C(C(=O)O)OC1CN(Cc1ccccc1)OCc1ccccc1 (stereo partly shown) [Compound 42] too.
n

Please give the result for CC(=O)N[C@@H]1C(N=[N+]=[N-])C=C(C(=O)O)OC1C(O)C(O)CO (stereo partly shown) [Compound 37] too.
n

---
For this compound, is measured pIC50 4 or higher? CC(=O)N[C@@H]1C(O)C=C(C(=O)O)OC1C(O)C(O)CN=[N+]=[N-] (stereo partly shown) [Compound 48]
y
